- Protocol: NCI Yeast Anticancer Drug Screen. Data for the rad50 strain (AID 155);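 note: 0% = growth of vehicle-only cultures of the same strain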
- Applied Conditions: S. cerevisiae rad50 strain growth inhibition; at 50.0 µM (retest, dose inferred, filed as 5.0)
The panel holds about 79,000 compounds, 15% with a hit somewhere; the sample as a whole holds those more often. Activity calls are given as the source filed them. Cut-off read from the data, not from the text of the source: active = growth inhibition above about 70%; inactive = the rest.
Field 'call' accepts active, inactive

Worked examples follow.
- C[N+](C)(C)CC1CCCC1=O (stereo unspecified): active
- CC(=O)c1cc2c(cc1O)C(C)(C)CCC2(C)C: inactive
- CCCCCCCC[N+]12CN3CN(CN(C3)C1)C2: inactive
- CCOc1c(Br)cc(N=Cc2ccc(N(CCCl)CCCl)c(OC)c2)cc1Br: active
- COc1ccc([Se][Se]c2ccc(OC)cc2OC)c(OC)c1: inactive

Kindly provide the recorded test outcome for the following compound: `O=C(OCCl)c1ccccc1`
inactive

Kindly provide the recorded test outcome for the following compound: C1=CC2CCC[N-]C2N1.C1=CC2CCC[N-]C2N1.[I][Pt+2][I] (stereo unspecified)
active

Kindly provide the recorded test outcome for the following compound: COc1ccc(P2(=S)Oc3ccc(C(c4ccccc4)(c4ccccc4)c4ccccc4)cc3O2)cc1 (stereo unspecified)
active

Kindly provide the recorded test outcome for the following compound: `O=C(O)c1ccccc1.[Zn+2]`
inactive

Kindly provide the recorded test outcome for the following compound: `N#CS.[Ag]`
active

Kindly provide the recorded test outcome for the following compound: `O=C([CH-]C(=O)c1ccccc1)c1ccccc1.O=C([CH-]C(=O)c1ccccc1)c1ccccc1.O=C([CH-]C(=O)c1ccccc1)c1ccccc1.[OH3+].[Y+3]`
active

Kindly provide the recorded test outcome for the following compound: `CCc1c[c]([Hg][Cl])c(CC)c(CC)c1CC`
active

Kindly provide the recorded test outcome for the following compound: `O=C(N/N=C/c1cc(Br)cc(Br)c1[O-])c1ccccc1O.O=C(N/N=C/c1cc(Br)cc(Br)c1[O-])c1ccccc1O.[Zn+2]`
active

---

- Protocol: NCI Yeast Anticancer Drug Screen. Data for the cln2 rad14 strain (AID 165);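 note: 0% = growth equal to vehicle treated cultures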
- Applied Conditions: S. cerevisiae cln2 rad14 strain, at 50.0 µM, stronger effect = higher value
About 79,000 compounds went through this panel and 15% of them were active in at least one assay; those are over-represented in the sample as a whole.
Label Yes when growth inhibition >= 10%; otherwise No.

Worked examples follow.
- CCCCCCCCCCCCBr: No
- Clc1ccc(C2ON2c2ccccc2)cc1 (stereo unspecified) (tested in a mixture with another compound): No
- CC(C(O)c1cccnc1)[N+](=O)[O-] (stereo unspecified): No
- COC(=O)C1=C(C(=O)OC)C2(OC(C)=O)c3ccccc3-c3ccccc3C12 (stereo unspecified): Yes
- C=CC(=O)OCCN(C)C: No
- Cc1nnc2n1-c1ccc(Cl)cc1C(c1ccccc1)=[N+]([O-])C2: Yes
- CCC[CH2][Sn]1([CH2]CCC)[O]CC(C)[O]1 (stereo unspecified): Yes
- O=C(c1ccccc1)c1cc(CN(CCCl)CCCl)c(O)cc1O: Yes
- NC(=O)C(CCN1CCCCC1)(c1ccccc1)c1ccccc1: No
- C=CCC1(CC=C)C(=O)N(C)C(=O)N(C)C1=O: No

Confirm if growth inhibition reported for the molecule `O=C(CCC(=O)Oc1ccc(S(=O)(=O)F)cc1)Oc1ccc(S(=O)(=O)F)cc1` is 10% or above.
Yes

---

- Protocol: NCI Yeast Anticancer Drug Screen. Data for the cln2 rad14 strain (AID 165);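 note: 0% = growth equal to vehicle treated cultures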
- Applied Conditions: S. cerevisiae cln2 rad14 strain, at 50.0 µM
About 79,000 compounds went through this panel and 15% of them were active in at least one assay; those are over-represented in the sample as a whole. Activity calls are given as the source filed them. Cut-off read from the data, not from the text of the source: active = growth inhibition above about 70%; inactive = the rest.
Field 'call' accepts TRUE (active), FALSE (inactive)

Worked examples follow.
• Nc1nnc[se]1 = FALSE
• Cc1ccc(Cl)c([N+](=O)[O-])c1 = FALSE
• CC(C)CCC(=O)c1ccoc1 = FALSE
• NC(=S)N=C(N)N = FALSE
• CCC1(CC)COP(=S)(S)OC1 = FALSE

Kindly provide the recorded test outcome for the following molecule: CNC(C)Cc1ccccc1OC (stereo not given) (tested in a mixture with another compound)
FALSE

Kindly provide the recorded test outcome for the following molecule: `CC1=C(O)C(=O)C=C2C1=CC=C1[C@@]2(C)CC[C@@]2(C)[C@@H]3C[C@](C)(C(=O)O)CC[C@]3(C)CC[C@]12C`
TRUE

Kindly provide the recorded test outcome for the following molecule: `O=[N+]([O-])/C=C\c1ccc2c(c1)OCO2`
TRUE

---

- Protocol: NCI Yeast Anticancer Drug Screen. Data for the sgs1 mgt1 strain (AID 161);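 note: 0% = growth of cultures given vehicle only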
- Applied Conditions: S. cerevisiae sgs1 mgt1 strain, at 50.0 µM
Compounds without any hit were thinned out: in the full panel of roughly 79,000, 15% have a hit. Calls of active or inactive are those of the source. Rule as the data show it: active = growth inhibition above about 70%; inactive = the rest.
Field 'call' accepts active, inactive

• Cc1cc(-c2ccccc2)cc(C)[n+]1CC[n+]1c(C)cc(-c2ccccc2)cc1C = inactive
• OC(CN(CCCl)CCCl)C(O)C(O)C(O)CN(CCCl)CCCl (stereo not drawn) = inactive
• O=C([O-])CC(=O)[O-].[Cu+2].[OH3+].[OH3+] = inactive
• CC(=O)C(CN(C)Cc1ccccc1)C(c1ccccc1)c1c(O)c2ccccc2oc1=O (stereo not drawn) = active

Kindly provide the recorded test outcome for the following molecule: `O=c1[nH]c(O)c(N=Nc2ccc([N+](=O)[O-])cc2[N+](=O)[O-])c(=O)[nH]1`
inactive

Kindly provide the recorded test outcome for the following molecule: C1=CC(N2CCOCC2)CC1 (stereo not drawn)
inactive

Kindly provide the recorded test outcome for the following molecule: `CC[CH2][Sn]([CH2]CC)[CH2]CC.CC[CH2][Sn]([CH2]CC)[CH2]CC`
active

Kindly provide the recorded test outcome for the following molecule: C[CH2][Sn]1([CH2]C)[O]OC(c2ccccc2)[O]1 (stereo not drawn)
inactive

---

- Protocol: NCI Yeast Anticancer Drug Screen. Data for the rad50 strain (AID 155);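 note: 0% = growth of vehicle-only cultures of the same strain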
- Applied Conditions: S. cerevisiae rad50 strain growth inhibition; at 50.0 µM (retest, dose inferred, filed as 5.0); stronger effect = higher value
- Method: Growth inhibition of yeast strains with defined genetic alterations is measured as a screen for potential anti-cancer activity. Selected strains with alterations in DNA damage repair or cell cycle control were exposed to compounds and growth inhibition was measured relative to vehicle treated controls. The strain used in this assay is rad50
Compounds without any hit were thinned out: in the full panel of roughly 79,000, 15% have a hit. Activity calls are given as the source filed them. No stated cut-off is given here; in the data, active means growth inhibition above about 70%; inactive means the rest.
Property Name: growth inhibition

- COc1ccc(/C=C(\C)[N+](=O)[O-])cc1OC: 97% (active)
- CC(Br)C(=O)C(CCN(C)C)(c1ccccc1)c1ccc(Br)s1 (centres undefined): 13% (inactive)
- O=C1CN2CCCCC2CN1 (centres undefined): -143% (inactive)
- C1=C(/C=C2\CCCc3c(-c4ccccc4)cc(-c4ccccc4)[o+]c32)CCC/C1=C\C1=C2OC(c3ccccc3)=CC(c3ccccc3)=C2CCC1: 14% (inactive)
- O=[N+]([O-])c1c[c]([Hg][Cl])c(O)[c]([Hg][Cl])c1: 99% (active)
- CC1=C2C(=CC(C)(C)[C@@H]2O)C(=O)[C@](C)(O)C12CC2: 92% (active)
- c1cc2n[pH]nc2cn1 (centres undefined): 5% (inactive)
- Cc1c2ccncc2c(CN(CCCl)CCCl)c2c3ccccc3n(C)c12: 98% (active)
- O=C(CBr)Nc1ccc(Cl)cc1: 99% (active)
- O=C1C=C(Cl)C(=O)C(Cl)=C1: 99% (active)

For each of the molecules below, note its growth inhibition.
1. CC(C)c1ccc(C(C)C)c(C(=O)CN2CCOCC2)c1
2. COc1cc(/C=C\[N+](=O)[O-])ccc1O
3. CCNC(=O)OOC(C)(C)C
4. O=C([CH-]C(=O)c1ccccc1)c1ccccc1.O=C([CH-]C(=O)c1ccccc1)c1ccccc1.O=C([CH-]C(=O)c1ccccc1)c1ccccc1.[Nd+3].[OH3+]

13% (inactive)
99% (active)
93% (active)
99% (active)

---

- Protocol: NCI Yeast Anticancer Drug Screen. Data for the mlh1 rad18 strain (AID 175)
- Applied Conditions: S. cerevisiae mlh1 rad18 strain growth inhibition; at 50.0 µM (retest, dose inferred, filed as 5.0); stronger effect = higher value
This is part of a sample that, as a whole, favours compounds with a hit. Of some 79,000 tested, about 15% had one in any assay.
Property Name: growth inhibition (%)
One number for each entry, in %.

• O=[N+]([O-])/C=C/c1cccc([N+](=O)[O-])c1 = 99

For each of the compounds below, note its growth inhibition.
1. CC(=O)C(CN1CCOCC1)C(c1ccccc1)c1c(O)c2ccccc2oc1=O (centres undefined)
2. CC(=N\O)/C(C)=N/O.CC(=N\O)/C(C)=N/O.CC(=N\O)/C(C)=N/O.CC(=N\O)/C(C)=N/O.[CH3-].[CH3-].[Co].[Co]
3. O=[N+]([O-])c1ccc(CS(=O)(=O)C(Cl)(Cl)Cl)o1
4. O=C(O)c1ccccc1.[Zn+2]

[81, 39, 99, 10]

For each of the compounds below, note its growth inhibition.
1. O=[N+]([O-])/C=C\c1ccc2c(c1)OCO2
2. COc1cc2c(c3c[n+](C)c4c5cc6c(cc5ccc4c13)OCO6)OCO2
3. O=S(=O)(CCBr)CCBr
4. CN(C)c1ccc(C2N(Cc3ccc(N(CCCl)CCCl)cc3)CCCN2Cc2ccc(N(CCCl)CCCl)cc2)cc1
5. CC(=O)OCC12CCC(C)=CC1OC1C(O)C(OC(C)=O)C2(C)C12CO2 (centres undefined)

1. 100
2. 98
3. 57
4. 99
5. 99

Where do the numbers come from? From PubChem BioAssay (NCI).
